Can you tell me pKi for the items I'm about to list?
study target: human kisspeptin receptor (Homo sapiens (Human))
measurement notes: Human KISS1R binding assay (membrane competition binding)
run conditions: 90 min at room temperature; competition with 0.2 nM [125I]-metastin (45-54); Flp-In T-Rex 293 kisspeptin membranes; metal complexes nonradioactive Ga, In, Lu; read-out: hKiSSR Binding Ki (90 min)
pKi: −log10 of the molar value. Numbered stars: 1 amine (or outer) side, 2 acyl side, 3 side chain; on linkers, the order of the positions; unused ones are H or OH. Square brackets hold non-standard residues; d marks the D form. Peptide text beside a SMILES is read from it. * marks the point of attachment. DOTA = O=C(O)CN1CCN(CC(=O)O)CCN(CC(=O)*)CCN(CC(=O)O)CC1; Gly(N-(3-F-4-Me-benzyl)) = Cc1ccc(CNCC(=O)*)cc1F; X3 = CNC(=N)N1CCC(N[*:1])(C(=O)[*:2])CC1; d2Nal = N[C@H](Cc1ccc2ccccc2c1)C(=O)O; Api = NC1(C(=O)O)CCNCC1; Ahx = NCCCCCC(=O)O; azaGly = NNC(=O)O

Quick check: pKi on human kisspeptin receptor (Homo sapiens (Human)), item Cc1ccc(CNCC(=O)N2CCC(NC(=O)[C@H](CC(C)C)NC(=O)NNC(=O)[C@H](Cc3ccccc3)NC(=O)[C@@H](NC(=O)[C@H](CC(N)=O)NC(=O)NNC(=O)[C@@H](Cc3ccc(O)cc3)NC(=O)CCCCCNC(=O)CN3CCN(CC(=O)O)CCN(CC(=O)O)CCN(CC(=O)O)CC3)[C@@H](C)O)(C(=O)N[C@@H](Cc3c[nH]c4ccccc34)C(N)=O)CC2)cc1F [Compound 108] ({DOTA-Ahx}-[dY][azaGly]NTF[azaGly]L[Api](Gly(N-(3-F-4-Me-benzyl)))W-NH2) ?
> 8.00

Record lookup: for human kisspeptin receptor (Homo sapiens (Human)), what pKi belongs to CNC(=N)N1CCC(NC(=O)[C@H](CC(C)C)NC(=O)NNC(=O)[C@H](Cc2ccccc2)NC(=O)[C@@H](NC(=O)[C@H](CC(N)=O)NC(=O)[C@@H](Cc2ccc3ccccc3c2)NC(=O)[C@@H](Cc2ccc(O)cc2)NC(=O)CCCCCNC(=O)CN2CCN(CC(=O)O)CCN(CC(=O)O)CCN(CC(=O)O)CC2)[C@@H](C)O)(C(=O)N[C@H](Cc2c[nH]c3ccccc23)C(N)=O)CC1 [Compound 319] ({DOTA-Ahx}-[dY][d2Nal]NTF[azaGly]L[X3][dW]-NH2) ?
< 7.00

###

study target: human kisspeptin receptor (Homo sapiens (Human), UniProt Q969F8)
Sequence (Q969F8 whole entry): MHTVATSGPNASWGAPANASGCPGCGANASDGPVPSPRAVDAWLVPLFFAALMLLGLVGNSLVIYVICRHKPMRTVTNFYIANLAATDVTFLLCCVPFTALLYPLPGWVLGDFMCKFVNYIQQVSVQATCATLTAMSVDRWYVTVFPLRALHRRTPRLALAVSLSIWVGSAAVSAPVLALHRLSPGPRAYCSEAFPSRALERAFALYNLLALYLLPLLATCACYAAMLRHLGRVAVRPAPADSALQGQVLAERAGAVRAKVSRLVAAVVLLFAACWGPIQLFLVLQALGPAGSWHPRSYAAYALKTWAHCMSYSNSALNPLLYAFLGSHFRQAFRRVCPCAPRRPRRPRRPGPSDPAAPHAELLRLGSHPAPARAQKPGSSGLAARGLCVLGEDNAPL
measurement notes: Human KISS1R binding assay (membrane competition binding)
run conditions: 90 min at room temperature; competition with 0.2 nM [125I]-metastin (45-54); Flp-In T-Rex 293 kisspeptin membranes; metal complexes nonradioactive Ga, In, Lu; read-out: hKiSSR Binding Ki (90 min)
pKi: −log10 of the molar value. Square brackets hold non-standard residues; d marks the D form. Peptide text beside a SMILES is read from it. * marks the point of attachment. DOTA = O=C(O)CN1CCN(CC(=O)O)CCN(CC(=O)*)CCN(CC(=O)O)CC1; Gly(N-(3-F-4-Me-benzyl)) = Cc1ccc(CNCC(=O)*)cc1F; 4Amb = NCc1ccc(C(=O)O)cc1; Api = NC1(C(=O)O)CCNCC1; azaGly = NNC(=O)O
readout type: pKi

Value wanted: pKi (human kisspeptin receptor (Homo sapiens (Human), UniProt Q969F8)) of entry Cc1ccc(CNCC(=O)N2CCC(NC(=O)[C@H](CC(C)C)n3cc([C@H](Cc4ccccc4)NC(=O)CCCCCNC(=O)CN4CCN(CC(=O)O)CCN(CC(=O)O)CCN(CC(=O)O)CC4)nn3)(C(=O)N[C@@H](Cc3c[nH]c4ccccc34)C(N)=O)CC2)cc1F
> 8.00

pKi of Cc1ccc(CNCC(=O)N2CCC(NC(=O)[C@H](CC(C)C)NC(=O)NNC(=O)[C@H](Cc3ccccc3)NC(=O)c3ccc(CNC(=O)CN4CCN(CC(=O)O)CCN(CC(=O)O)CCN(CC(=O)O)CC4)cc3)(C(=O)N[C@@H](Cc3c[nH]c4ccccc34)C(N)=O)CC2)cc1F [Compound 109] ({DOTA-4Amb}-F[azaGly]L[Api](Gly(N-(3-F-4-Me-benzyl)))W-NH2) on human kisspeptin receptor (Homo sapiens (Human), UniProt Q969F8)?
> 8.00
